- PROTOCOL TEXT: Acute toxicity test (oral, LD50 by Litchfield-Wilcoxon's method)
- EXPERIMENTAL CONTEXT: mouse, in vivo, ICR-strain male mice, groups of 5, mortality for 14 days
ENDPOINT LABEL: LD50 at 336 h (mg/kg)

> print(dat)
              smiles.representation  endpoint.unit  assay.result
1      CNc1nccc2c1c(=O)n(C)c(=O)n2C          mg/kg           720
2          Cn1c(=O)c2cnccc2n(C)c1=O          mg/kg           400
3  CC(C)Nc1nccc2c1c(=O)n(C)c(=O)n2C          mg/kg           700
4       Cn1c(=O)c2c(N)nccc2n(C)c1=O          mg/kg           710
